I'd be grateful if you could share measured EC50 for these entries.
# assayed-system: T1, human CD40 overexpressed on cells (human, UniProt P25942 21-277)
# T1 construct: Cells transfected with human CD40 cDNA; also called CHO-huCD40 cells; CHO-S cells overexpressing human CD40
# T1 sequence (P25942 21-277 limits assumed): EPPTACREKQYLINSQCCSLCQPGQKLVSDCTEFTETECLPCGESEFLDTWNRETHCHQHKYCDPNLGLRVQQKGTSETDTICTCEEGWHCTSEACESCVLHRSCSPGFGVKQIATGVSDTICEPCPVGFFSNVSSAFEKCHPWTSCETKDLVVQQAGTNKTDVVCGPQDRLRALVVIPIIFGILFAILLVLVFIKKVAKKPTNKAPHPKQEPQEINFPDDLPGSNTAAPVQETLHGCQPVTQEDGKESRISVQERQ
# experiment-description: flow cytometry on CHO-S cells overexpressing human CD40
Numbers only, in nM.

| binder | assay-endpoint | measured |
| --- | --- | --- |
| ADI-55145 (antibody, human IgG1, kappa, V domains shown) VH: QVQLVESGGGVVQPGRSLRLSCAASGFTFEKYGMHWVRQAPGKGLEWVAVISYEGTSKYYADSVKGRFTISRDNSKNTLYLQMNSLRAEDTAVYYCARDTSRGHDIWGQGTMVTVSS VL: EIVLTQSPGTLSLSPGERATLSCQASQSVSYNYLAWYQQKPGQAPRLLIYGASSRNNGIPDRFSGSGSGTDFTLTISRLEPEDFAVYYCQQYSDYPPFTFGGGTKVEIKR | EC50 | 5.26 |

Attention now shifts to the item below.
Value of EC50 reported for the binder ADI-55144-2 (antibody, human IgG1, kappa, V domains shown) VH: QVQLVESGGGVVQPGRSLRLSCAASGFTFEKYGMHWVRQAPGKGLEWVAVISYEGTKKYYAESVKGRFTISRDNSKNTLYLQMNSLRAEDTAVYYCARDTSRGHDIWGQGTMVTVSS VL: EIVLTQSPGTLSLSPGERATLSCRASQSVSYSYLAWYQQKPGQAPRLLIYGASSLATGIPDRFSGSGSGTDFTLTISRLEPEDFAVYYCQQYSDYPPFTFGGGTKVEIKR is 11.5
